TGT: ATR kinase (full-length ATR) (Homo sapiens (Human))
RUN_DESCRIPTION: ATR inhibition assay (radioactive-phosphate incorporation)
Assay type: biochemical
MEASUREMENT_SETUP: Ki(app), 5 nM full-length ATR, 10 μM ATP, 25° C.
Overview of recorded Ki for various compounds

Worked examples, 3 compounds total:
Give the value of Ki reported for the following: `CS(=O)(=O)C1CCN(c2c(F)cncc2NC(=O)c2c(N)nn3cc(F)cnc23)CC1`
10 to 1000 nM

Give the value of Ki reported for the following: `Nc1nn2cc(F)cnc2c1C(=O)Nc1cnccc1N1CCC(N2CCCC2=O)CC1`
10 to 1000 nM

Give the value of Ki reported for the following: `Nc1nn2cc(Cl)cnc2c1C(=O)Nc1cnccc1O[C@@H]1CCCNC1`
10 to 1000 nM

***
Give the value of Ki reported for the following: CC(C#N)c1cnc2c(C(=O)Nc3cnccc3N3CCN(C)CC3)c(N)nn2c1 (centres unmarked)
10 to 1000 nM

Give the value of Ki reported for the following: `Cc1cncc(NC(=O)c2c(N)nn3cc(F)cnc23)c1N1CCN(C2COC2)CC1`
10 to 1000 nM

Give the value of Ki reported for the following: CCN1CCCC1C(=O)N1CCN(c2c(F)cncc2NC(=O)c2c(N)nn3cc(F)cnc23)CC1 (centres unmarked)
10 to 1000 nM

Give the value of Ki reported for the following: CN1CCCCC1C(=O)N1CCN(c2c(F)cncc2NC(=O)c2c(N)nn3cc(F)cnc23)CC1 (centres unmarked)
10 to 1000 nM

Give the value of Ki reported for the following: `Nc1nn2cc(F)cnc2c1C(=O)Nc1cnccc1-c1ccc(C(=O)N2CCC(N3CCCC3)CC2)nc1`
10 to 1000 nM

* * *

TGT: ATR kinase (full-length ATR) (Homo sapiens (Human), UniProt Q13535)
Sequence (Q13535 whole entry): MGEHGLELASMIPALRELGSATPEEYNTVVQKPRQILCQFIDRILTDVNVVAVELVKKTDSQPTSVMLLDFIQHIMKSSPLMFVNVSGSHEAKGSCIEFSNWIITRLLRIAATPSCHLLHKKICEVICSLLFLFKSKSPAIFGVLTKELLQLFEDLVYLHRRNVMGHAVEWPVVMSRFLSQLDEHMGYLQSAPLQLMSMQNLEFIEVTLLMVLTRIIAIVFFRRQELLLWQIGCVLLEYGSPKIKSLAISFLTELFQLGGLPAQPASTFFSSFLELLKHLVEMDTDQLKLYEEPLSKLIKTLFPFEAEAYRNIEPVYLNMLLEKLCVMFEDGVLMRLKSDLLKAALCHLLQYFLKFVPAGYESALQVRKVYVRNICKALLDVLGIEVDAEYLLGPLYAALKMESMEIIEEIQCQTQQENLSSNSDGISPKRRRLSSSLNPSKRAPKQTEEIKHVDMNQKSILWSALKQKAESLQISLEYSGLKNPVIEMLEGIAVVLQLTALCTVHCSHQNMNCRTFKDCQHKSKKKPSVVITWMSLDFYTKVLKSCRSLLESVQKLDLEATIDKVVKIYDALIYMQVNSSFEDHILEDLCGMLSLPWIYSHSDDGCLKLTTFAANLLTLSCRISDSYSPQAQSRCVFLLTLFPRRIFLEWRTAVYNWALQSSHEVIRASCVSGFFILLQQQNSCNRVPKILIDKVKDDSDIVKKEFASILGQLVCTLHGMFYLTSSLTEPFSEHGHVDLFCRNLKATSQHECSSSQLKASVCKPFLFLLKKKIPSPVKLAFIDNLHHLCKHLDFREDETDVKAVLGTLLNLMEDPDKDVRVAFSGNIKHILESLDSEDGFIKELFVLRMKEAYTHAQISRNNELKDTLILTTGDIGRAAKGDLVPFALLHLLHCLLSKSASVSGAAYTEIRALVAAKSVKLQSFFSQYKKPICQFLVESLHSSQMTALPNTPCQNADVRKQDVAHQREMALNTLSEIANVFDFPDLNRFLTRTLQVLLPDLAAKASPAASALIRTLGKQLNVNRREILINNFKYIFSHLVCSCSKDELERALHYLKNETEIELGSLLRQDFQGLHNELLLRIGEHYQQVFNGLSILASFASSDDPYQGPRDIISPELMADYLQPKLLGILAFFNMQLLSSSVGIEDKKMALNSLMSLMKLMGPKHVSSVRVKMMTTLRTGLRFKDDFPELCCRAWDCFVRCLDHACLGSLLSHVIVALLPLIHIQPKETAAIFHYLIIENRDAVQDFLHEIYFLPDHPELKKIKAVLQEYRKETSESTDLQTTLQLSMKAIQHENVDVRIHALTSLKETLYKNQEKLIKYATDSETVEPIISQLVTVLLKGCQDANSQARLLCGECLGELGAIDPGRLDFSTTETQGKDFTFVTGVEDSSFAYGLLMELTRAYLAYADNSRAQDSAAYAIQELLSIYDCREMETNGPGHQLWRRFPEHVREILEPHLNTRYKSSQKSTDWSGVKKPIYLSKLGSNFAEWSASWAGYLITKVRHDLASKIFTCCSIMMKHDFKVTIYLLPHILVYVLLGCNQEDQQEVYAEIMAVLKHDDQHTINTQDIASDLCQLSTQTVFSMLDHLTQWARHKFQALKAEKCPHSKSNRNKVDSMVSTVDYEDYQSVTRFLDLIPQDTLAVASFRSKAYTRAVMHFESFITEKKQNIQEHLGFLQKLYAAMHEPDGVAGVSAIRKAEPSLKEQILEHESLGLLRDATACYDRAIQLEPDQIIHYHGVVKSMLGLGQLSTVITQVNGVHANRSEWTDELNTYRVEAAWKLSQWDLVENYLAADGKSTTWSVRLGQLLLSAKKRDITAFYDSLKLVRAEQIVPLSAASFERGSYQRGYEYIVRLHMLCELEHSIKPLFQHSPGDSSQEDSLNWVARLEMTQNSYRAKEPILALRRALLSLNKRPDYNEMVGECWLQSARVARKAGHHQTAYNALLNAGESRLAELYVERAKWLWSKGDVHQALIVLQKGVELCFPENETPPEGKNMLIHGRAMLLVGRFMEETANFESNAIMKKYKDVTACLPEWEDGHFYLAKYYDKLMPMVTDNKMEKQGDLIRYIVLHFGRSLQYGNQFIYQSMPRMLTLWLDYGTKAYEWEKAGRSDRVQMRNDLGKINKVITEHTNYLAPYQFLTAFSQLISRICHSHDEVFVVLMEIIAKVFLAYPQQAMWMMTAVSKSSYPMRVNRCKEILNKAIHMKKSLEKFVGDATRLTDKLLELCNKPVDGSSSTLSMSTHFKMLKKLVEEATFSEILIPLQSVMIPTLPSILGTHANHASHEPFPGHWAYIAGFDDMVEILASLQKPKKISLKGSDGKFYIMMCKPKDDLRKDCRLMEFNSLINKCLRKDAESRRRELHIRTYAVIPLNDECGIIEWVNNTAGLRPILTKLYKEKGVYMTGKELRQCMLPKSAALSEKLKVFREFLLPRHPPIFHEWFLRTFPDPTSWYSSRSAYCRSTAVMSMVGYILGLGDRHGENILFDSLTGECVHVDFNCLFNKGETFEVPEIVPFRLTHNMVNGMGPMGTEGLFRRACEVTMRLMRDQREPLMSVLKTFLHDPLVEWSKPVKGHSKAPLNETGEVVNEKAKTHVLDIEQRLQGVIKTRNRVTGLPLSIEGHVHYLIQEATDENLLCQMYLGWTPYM
RUN_DESCRIPTION: ATR inhibition assay (radioactive-phosphate incorporation)
Format: biochemical
pKi: −log10 of the molar value.
MEASUREMENT_NAME: pKi

Worked examples, 2 molecules total:
Give the value of pKi reported for the following: `CN1CCN(c2c(NC(=O)c3c(N)nn4cc(F)cnc34)cncc2C(F)F)CC1`
5.30 to 6.00

Give the value of pKi reported for the following: `Nc1nn2cc(F)cnc2c1C(=O)Nc1cncc(F)c1C1CCN(C2COC2)CC1`
5.30 to 6.00

***
Give the value of pKi reported for the following: `CN1CC[C@@H](OC2CCN(c3c(F)cncc3NC(=O)c3c(N)nn4cc(F)cnc34)CC2)C1`
6.00 to 8.00

Give the value of pKi reported for the following: `CN(C)CC1(O)CCN(c2ccncc2NC(=O)c2c(N)nn3cc(Cl)cnc23)CC1`
5.30 to 6.00

* * *

Overview of recorded pKi for various compounds
TGT: ATR kinase (full-length ATR) (Homo sapiens (Human), UniProt Q13535)
RUN_DESCRIPTION: ATR inhibition assay (radioactive-phosphate incorporation)
Format: biochemical
MEASUREMENT_SETUP: Ki(app), 5 nM full-length ATR, 10 μM ATP, 25° C.
pKi: −log10 of the molar value.

Give the value of pKi reported for the following: `Nc1nn2cc(Cl)cnc2c1C(=O)Nc1cnccc1N1CCC(N2CCn3ccnc3C2)CC1`
6.00 to 8.00

Give the value of pKi reported for the following: `C[C@@H]1CN(C(=O)C2CCN(c3c(F)cncc3NC(=O)c3c(N)nn4cc(F)cnc34)CC2)CCN1`
6.00 to 8.00

* * *

TGT: ATR kinase (full-length ATR) (Homo sapiens (Human))
RUN_DESCRIPTION: ATR inhibition assay (radioactive-phosphate incorporation)
Assay type: biochemical
MEASUREMENT_SETUP: Ki(app), 5 nM full-length ATR, 10 μM ATP, 25° C.
pKi: −log10 of the molar value.
Overview of recorded pKi for various compounds

Worked examples, 5 compounds total:
Lab note: ATR kinase (full-length ATR) (Homo sapiens (Human)) assay, enter pKi for `Nc1nn2cc(F)cnc2c1C(=O)Nc1cnccc1N1CCN2C(=O)CC[C@@H]2C1` here
6.00 to 8.00

Lab note: ATR kinase (full-length ATR) (Homo sapiens (Human)) assay, enter pKi for `Nc1nn2cc(F)cnc2c1C(=O)Nc1cnccc1-n1ccnc1` here
6.00 to 8.00

Lab note: ATR kinase (full-length ATR) (Homo sapiens (Human)) assay, enter pKi for `Nc1nn2cc(F)cnc2c1C(=O)Nc1cnccc1N1CCN([C@H]2CCOC2)CC1` here
6.00 to 8.00

Lab note: ATR kinase (full-length ATR) (Homo sapiens (Human)) assay, enter pKi for `Nc1nn2cc(F)cnc2c1C(=O)Nc1cnccc1OC1CCS(=O)(=O)CC1` here
6.00 to 8.00

Lab note: ATR kinase (full-length ATR) (Homo sapiens (Human)) assay, enter pKi for `Nc1nn2cc(Cl)cnc2c1C(=O)Nc1cnccc1Oc1cccnc1` here
6.00 to 8.00

***
Lab note: ATR kinase (full-length ATR) (Homo sapiens (Human)) assay, enter pKi for `Nc1nn2cc(F)cnc2c1C(=O)Nc1cncc(F)c1N1CCN(C2CCOCC2)CC1` here
6.00 to 8.00

Lab note: ATR kinase (full-length ATR) (Homo sapiens (Human)) assay, enter pKi for `CNc1cc(OC)c(NC(=O)c2c(N)nn3cc(F)cnc23)cn1` here
6.00 to 8.00

Lab note: ATR kinase (full-length ATR) (Homo sapiens (Human)) assay, enter pKi for `CC(C)Oc1ccncc1NC(=O)c1c(N)nn2cc(CC#N)cnc12` here
> 8.00

Lab note: ATR kinase (full-length ATR) (Homo sapiens (Human)) assay, enter pKi for `Nc1nn2cc(Cl)cnc2c1C(=O)Nc1cnccc1N1CCN(CC(F)(F)F)CC1` here
6.00 to 8.00

* * *

Overview of recorded Ki for various compounds
TGT: UniProt Q13535
RUN_DESCRIPTION: ATR inhibition assay (radioactive-phosphate incorporation)
Type: biochemical

Give the value of Ki reported for the following: CC(C)(C)N1CCN(c2ccncc2NC(=O)c2c(N)nn3cc(Cl)cnc23)CC1 [I-N-34]
1000 to 5000 nM

Give the value of Ki reported for the following: CN1CCC(c2c(F)cncc2NC(=O)c2c(N)nn3cc(F)cnc23)CC1 [I-C-14]
1000 to 5000 nM

Give the value of Ki reported for the following: Nc1nn2cc(F)cnc2c1C(=O)Nc1cncc(F)c1N1CCC(C(=O)N2CCN3CCC2CC3)CC1 [I-G-7]
10 to 1000 nM

Give the value of Ki reported for the following: CN1CCC(c2ccncc2NC(=O)c2c(N)nn3cc(C(C)(C)C#N)cnc23)CC1 [I-C-23]
1000 to 5000 nM

Give the value of Ki reported for the following: CC(C)(C#N)c1cnc2c(C(=O)Nc3cnccc3N3CCN(C4COC4)CC3)c(N)nn2c1 [I-N-142]
1000 to 5000 nM

Give the value of Ki reported for the following: C[N+]1([O-])CCN(C(=O)C2CCN(c3c(F)cncc3NC(=O)c3c(N)nn4cc(F)cnc34)CC2)CC1 [I-G-95]
10 to 1000 nM

***
Give the value of Ki reported for the following: CN1CCN(c2c(C#N)cncc2NC(=O)c2c(N)nn3cc(F)cnc23)CC1 [I-N-113]
1000 to 5000 nM

Give the value of Ki reported for the following: Nc1nn2cc(F)cnc2c1C(=O)Nc1cncc(F)c1N1CCC(C(=O)N2CCN3CCC2C3)CC1 (centres unmarked) [I-G-46]
1000 to 5000 nM

* * *

TGT: ATR kinase (full-length ATR) (Homo sapiens (Human), UniProt Q13535)
RUN_DESCRIPTION: ATR inhibition assay (radioactive-phosphate incorporation)
Type: biochemical
MEASUREMENT_SETUP: Ki(app), 5 nM full-length ATR, 10 μM ATP, 25° C.
MEASUREMENT_NAME: Ki

Worked examples, 5 compounds total:
Give the value of Ki reported for the following: Nc1nn2cc(F)cnc2c1C(=O)Nc1cncc(F)c1N1CCC(C(=O)NCCN2CCC2)CC1 [I-G-42]
10 to 1000 nM

Give the value of Ki reported for the following: Nc1nn2cc(F)cnc2c1C(=O)Nc1cncc(F)c1N1CCN([C@H]2CCOC2)CC1 [I-N-125]
10 to 1000 nM

Give the value of Ki reported for the following: Nc1nn2cc(F)cnc2c1C(=O)Nc1cncc(F)c1N1CCN(C(=O)C2CC3CCCCN3C2)CC1 (centres unmarked) [I-N-203]
10 to 1000 nM

Give the value of Ki reported for the following: Nc1nn2cc(F)cnc2c1C(=O)Nc1cnccc1N1CCC(C(=O)N2CCOCC2)CC1 [I-G-85]
10 to 1000 nM

Give the value of Ki reported for the following: Nc1nn2cc(F)cnc2c1C(=O)Nc1cnccc1N1CCN(C2COC2)C2CC21 (centres unmarked) [I-N-31]
1000 to 5000 nM

***
Give the value of Ki reported for the following: N#CC1CN(C(=O)C2CCN(c3c(F)cncc3NC(=O)c3c(N)nn4cc(F)cnc34)CC2)C1 [I-G-76]
10 to 1000 nM

Give the value of Ki reported for the following: CO[C@H]1CCN(C(=O)C2CCN(c3ccncc3NC(=O)c3c(N)nn4cc(F)cnc34)CC2)C1 [I-G-94]
10 to 1000 nM

Give the value of Ki reported for the following: Nc1nn2cc(F)cnc2c1C(=O)Nc1cnccc1C1CCN(C2COC2)CC1 [I-C-10]
10 to 1000 nM

Give the value of Ki reported for the following: Nc1nn2cc(F)cnc2c1C(=O)Nc1cncc(F)c1N1CCN(C2COC2)CC1 [I-N-13]
10 to 1000 nM

Give the value of Ki reported for the following: Nc1nn2cc(F)cnc2c1C(=O)Nc1cnccc1OC1CCC(C(=O)O)CC1 (centres unmarked) [I-O-8]
10 to 1000 nM

Give the value of Ki reported for the following: Nc1nn2cc(F)cnc2c1C(=O)Nc1cncc(F)c1N1CCC(C(=O)N2CC(F)(F)C2)CC1 [I-G-73]
10 to 1000 nM

Give the value of Ki reported for the following: Nc1nn2cc(F)cnc2c1C(=O)Nc1cnccc1-c1ccc(C(=O)N2CCN3CCC2CC3)cc1 [I-C-48]
10 to 1000 nM

Ref: patent US10392391B2
